Test system: HMLE_sh_eGFP viability, CellTiter-Glo luminescence, 72 h
Assay: cytotoxicity in HMLE control line with eGFP shRNA, dose response, counter-screen for HMLE_sh_ECad selective toxicity project, cell-based, HMLE_sh_eGFP, luminescence (AID 463074);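 further: counterscreen control line to flag general toxicity for the HMLE_sh_ECad screen; potency for loss of viability as luminescence drops below DMSO wells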
Activity calls are given as the source filed them.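 How the source made its calls: active means AC50 no more than tenfold above the top dose tested, or full inhibition at every dose with a flat fit (cut at about 19 µM in these data); inconclusive means flat curve fit with inhibition between 30% and 70%, or poor fit; inactive means AC50 more than tenfold above the top dose tested.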
Lab note: assign the record to one of active, inactive

O=C(NCCN1CCCC1)c1ccc2c(c1)N(Cc1cccc(Cl)c1)C(=O)c1ccccc1S2(=O)=O: inactive

Below: the item to evaluate.
Test call for this compound, please: O=C(Nc1ccc(CN2CCOCC2)cc1)c1ccc(-c2ccc(Cl)cc2Cl)o1
active

---

Tested on: HMLE_sh_eGFP viability, CellTiter-Glo luminescence, 72 h
Assay: cytotoxicity in HMLE control line with eGFP shRNA, dose response, counter-screen for HMLE_sh_ECad selective toxicity project, cell-based, HMLE_sh_eGFP, luminescence (AID 463074);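 further: counterscreen control line to flag general toxicity for the HMLE_sh_ECad screen; potency for loss of viability as luminescence drops below DMSO wells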
The source made the active and inactive calls.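 Rule for the calls: active = AC50 no more than tenfold above the top dose tested, or full inhibition at every dose with a flat fit (cut at about 19 µM in these data); inconclusive = flat curve fit with inhibition between 30% and 70%, or poor fit; inactive = AC50 more than tenfold above the top dose tested.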
Lab note: assign the record to one of Yes for active, No for inactive

As a guide, the following entries are already answered.
COc1ccc(Br)cc1C(=O)NC(=S)Nc1cc(-c2nc3ccccc3[nH]2)ccc1C: No
OC(CN1CCCCC1)Cn1c2ccc(Cl)cc2c2cc(Cl)ccc21 (stereo unspecified): Yes
CC(C)(CN1CCN(Cc2ccccc2)CC1)NS(=O)(=O)c1ccccc1: Yes
Cc1nc(N2CCCCC2)c2c(C)c(C(=O)Nc3ccccc3C(F)(F)F)sc2n1: Yes
Cc1ccc(NC(=S)Nc2cccc3cnccc23)cc1C: No

Below: the item to evaluate.
Test call for this molecule, please: COc1cc(/C=C/c2noc(-c3ccccc3O)n2)ccc1OC(C)=O
No

---

System: HMLE_sh_eGFP viability, CellTiter-Glo luminescence, 72 h
Assay: cytotoxicity in HMLE control line with eGFP shRNA, dose response, counter-screen for HMLE_sh_ECad selective toxicity project, cell-based, HMLE_sh_eGFP, luminescence (AID 463074);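 further: counterscreen control line to flag general toxicity for the HMLE_sh_ECad screen; potency for loss of viability as luminescence drops below DMSO wells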
List of AC50 values.

O=C1/C(=C/c2ccncc2)Oc2cc(OS(=O)(=O)c3ccccc3)ccc21: 4.81 µM
O=C(Nc1ccc(-c2csc(Nc3cccc(C(F)(F)F)c3)n2)cc1)c1cc([N+](=O)[O-])cc(C(F)(F)F)c1: 1.93 µM
Cc1snc(S(=O)(=O)/C(C#N)=N/Nc2ccc(C(F)(F)F)cc2)c1C#N: 19.7 µM
Cc1ccc(COc2ccccc2-c2cc(C(=O)N/N=C/c3cccnc3)[nH]n2)cc1: 12.6 µM
CC(=O)N(C)c1ccc(OCC(O)Cn2c3ccc(Cl)cc3c3cc(Cl)ccc32)cc1 (stereo not given): 1.65 µM
Cc1cc(N2CCN(C)CC2)nc2ccc(NC(=S)NCCC(C)C)cc12: 7.91 µM
CCc1ccc(N2C(=O)NC(=O)/C(=C\C=C\c3ccco3)C2=O)cc1: 3.72 µM
COc1cc(Nc2ccc(C)cc2)c([N+](=O)[O-])nc1[N+](=O)[O-]: 5.74 µM
COc1ccc(/C=N/NC(=O)c2cc(C34CC5CC(CC(C5)C3)C4)[nH]n2)cc1O: 1.8 µM
O=C1C=C(c2ccc(F)cc2OCc2ccccc2)C[C@@H](c2ccc(F)cc2)C1: 2.25 µM

# lookup: AC50 of CCC(=O)Nc1ccc(C(=O)Cn2ncc(Cl)c(Cl)c2=O)cc1
7.77 µM

# lookup: AC50 of CC(NS(=O)(=O)OCC(Cl)(Cl)Cl)c1ccc(C(C)(C)C)cc1 (stereo not given)
3.57 µM

# lookup: AC50 of Cc1[nH]n(-c2ccc([N+](=O)[O-])cc2)c(=O)c1C=NCCN1CCN(C(=O)C(C)C)CC1
5.14 µM
